# Test system: UACC-62
# testDescription: Growth inhibition of human UACC62 cells at 1 uM after 48 hrs by sulforhodamine B assay
# Type: functional, cell-based
Active and inactive are the calls of the source. The calls are words filed in the database; no cut-off is given here.
Assign a class; possible classes are active, inactive

Lookup: Answer briefly: the call reported for Nc1ncnc2c1N=C1c3ccccc3CCC1C(c1ccccc1)N2 (stereo unspecified) in this assay.
Found: active

Lookup: Answer briefly: the call reported for Nc1nc(N)c2c(n1)NC(c1ccc(Cl)cc1)C1CCc3ccccc3C1=N2 (stereo unspecified) in this assay.
Found: inactive

Lookup: Answer briefly: the call reported for Nc1ncnc2c1N=C1c3ccccc3CCC1C(c1ccc(F)cc1)N2 (stereo unspecified) in this assay.
Found: active

Lookup: Answer briefly: the call reported for Nc1nc(N)c2c(n1)NC(c1ccccc1)C1CCc3ccccc3C1=N2 (stereo unspecified) in this assay.
Found: inactive

Lookup: Answer briefly: the call reported for Nc1nc(N)c2c(n1)NC(c1ccc(F)cc1)C1CCc3ccccc3C1=N2 (stereo unspecified) in this assay.
Found: inactive

Lookup: Answer briefly: the call reported for Nc1ncnc2c1N=C1c3ccccc3CCC1C(c1ccc(Cl)cc1)N2 (stereo unspecified) in this assay.
Found: active
